# TARGET_UNDER_TEST: PLK1 (Homo sapiens, UniProt P53350)
# Construct: endogenous in cells; host or cells: HeLa
# Sequence (P53350 whole entry): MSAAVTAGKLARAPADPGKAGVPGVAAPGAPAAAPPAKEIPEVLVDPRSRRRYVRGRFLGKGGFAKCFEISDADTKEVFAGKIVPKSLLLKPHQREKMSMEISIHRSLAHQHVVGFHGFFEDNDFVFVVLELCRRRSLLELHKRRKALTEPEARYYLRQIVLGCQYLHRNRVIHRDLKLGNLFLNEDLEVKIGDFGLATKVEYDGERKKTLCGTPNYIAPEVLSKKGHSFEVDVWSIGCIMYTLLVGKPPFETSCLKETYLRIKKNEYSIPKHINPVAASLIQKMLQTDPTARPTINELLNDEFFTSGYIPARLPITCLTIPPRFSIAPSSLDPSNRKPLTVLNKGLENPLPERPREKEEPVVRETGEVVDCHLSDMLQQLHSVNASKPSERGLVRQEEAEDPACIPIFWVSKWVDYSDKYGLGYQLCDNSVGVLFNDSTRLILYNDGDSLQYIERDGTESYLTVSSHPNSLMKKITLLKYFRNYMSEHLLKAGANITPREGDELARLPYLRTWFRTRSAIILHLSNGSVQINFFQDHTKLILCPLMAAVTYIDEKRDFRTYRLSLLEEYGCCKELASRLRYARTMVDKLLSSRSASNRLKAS
# ASSAY_DETAILS: PLK1 protein degradation in HeLa cells, Western blotting (PLK1/GAPDH ratio)
# Assay type: cell-based
# TEST_CONTEXT: 6 hours compound incubation, measured only if the grade of Dmax is A or B
Below, each of the molecules is paired with its reported DC50 value.

[
  {
    "MOLECULE": "COc1cc(C(=O)NCCCCCCCC(=O)Nc2cccc3c2C(=O)N(C2CCC(=O)NC2=O)C3=O)c(F)cc1Nc1ncc2c(n1)N(C1CCCC1)CC(F)(F)C(=O)N2C (stereo not drawn)",
    "DC50": "≤ 500 nM"
  },
  {
    "MOLECULE": "COc1cc(C(=O)N[C@H]2CCN(C(=O)CCCC(=O)N3CCN(c4ccc5c(c4)C(=O)N(C4CCC(=O)NC4=O)C5=O)CC3)C2)c(F)cc1Nc1ncc2c(n1)N(C1CCCC1)CC(F)(F)C(=O)N2C (stereo partly drawn)",
    "DC50": "≤ 500 nM"
  },
  {
    "MOLECULE": "COc1cc(C(=O)NC2CCN(CCOCCOCCOCCOCCNc3cccc4c3C(=O)N(C3CCC(=O)NC3=O)C4=O)CC2)c(F)cc1Nc1ncc2c(n1)N(C(C)C)CC(F)(F)C(=O)N2C (stereo not drawn)",
    "DC50": "≤ 50 nM"
  },
  {
    "MOLECULE": "COc1cc(C(=O)NC2CCN(CCCCCCCCNc3cccc4c3C(=O)N(C3CCC(=O)NC3=O)C4=O)CC2)c(F)cc1Nc1ncc2c(n1)N(C1CCCC1)CC(F)(F)C(=O)N2C (stereo not drawn)",
    "DC50": "> 500 nM"
  },
  {
    "MOLECULE": "COc1cc(C(=O)NC2CCN(CCOCCOCCNc3ccc4c(c3)C(=O)N(C3CCC(=O)NC3=O)C4=O)CC2)c(F)cc1Nc1ncc2c(n1)N(C1CCCC1)CC(F)(F)C(=O)N2C (stereo not drawn)",
    "DC50": "≤ 50 nM"
  },
  {
    "MOLECULE": "COc1cc(C(=O)NC2CCN(CCOCCNC(=O)CNc3cccc4c3C(=O)N(C3CCC(=O)NC3=O)C4=O)CC2)c(F)cc1Nc1ncc2c(n1)N(C1CCCC1)CC(F)(F)C(=O)N2C (stereo not drawn)",
    "DC50": "≤ 50 nM"
  }
]
